assayedTarget: Human immunodeficiency virus type 1 reverse transcriptase (Human immunodeficiency virus 1, UniProt Q72547)
assayOverview: Inhibition of RNase H activity of HIV-1 HXB2 reverse transcriptase p66/p51 after 10 mins by fluorescence spectrophotometry
observationType: IC50 (µM)

Here is how some compounds turned out for IC50.
[[record]]
chemicalstring = "Cc1sc2nc(-c3ccc([N+](=O)[O-])cc3)[nH]c(=O)c2c1C"
observationtype = "IC50"
measvalue = 0.85

[[record]]
chemicalstring = "CCOc1ccc(NC(=O)c2c(NC(=O)c3ccco3)sc3c2CCCCC3)cc1"
observationtype = "IC50"
measvalue = 4.2

[[record]]
chemicalstring = "Cc1sc(NC(=O)c2cccc([N+](=O)[O-])c2)c(C(N)=O)c1C"
observationtype = "IC50"
measvalue = 1.3


[I] Cc1sc(NC(=O)c2ccc3c(c2)OCO3)c(C(N)=O)c1C
[II] NC(=O)c1c(N)sc2c1CCCC2
[III] Cc1ccc(C(=O)Nc2sc(C)c(C)c2C(N)=O)cc1
Prompt: Please give the order of these compounds when sorted by IC50, largest value leading. Respond with the label ranking, as requested.
Response: II, I, III
